Target: RON (Homo sapiens, UniProt Q04912)
Sequence (Q04912 25-1400): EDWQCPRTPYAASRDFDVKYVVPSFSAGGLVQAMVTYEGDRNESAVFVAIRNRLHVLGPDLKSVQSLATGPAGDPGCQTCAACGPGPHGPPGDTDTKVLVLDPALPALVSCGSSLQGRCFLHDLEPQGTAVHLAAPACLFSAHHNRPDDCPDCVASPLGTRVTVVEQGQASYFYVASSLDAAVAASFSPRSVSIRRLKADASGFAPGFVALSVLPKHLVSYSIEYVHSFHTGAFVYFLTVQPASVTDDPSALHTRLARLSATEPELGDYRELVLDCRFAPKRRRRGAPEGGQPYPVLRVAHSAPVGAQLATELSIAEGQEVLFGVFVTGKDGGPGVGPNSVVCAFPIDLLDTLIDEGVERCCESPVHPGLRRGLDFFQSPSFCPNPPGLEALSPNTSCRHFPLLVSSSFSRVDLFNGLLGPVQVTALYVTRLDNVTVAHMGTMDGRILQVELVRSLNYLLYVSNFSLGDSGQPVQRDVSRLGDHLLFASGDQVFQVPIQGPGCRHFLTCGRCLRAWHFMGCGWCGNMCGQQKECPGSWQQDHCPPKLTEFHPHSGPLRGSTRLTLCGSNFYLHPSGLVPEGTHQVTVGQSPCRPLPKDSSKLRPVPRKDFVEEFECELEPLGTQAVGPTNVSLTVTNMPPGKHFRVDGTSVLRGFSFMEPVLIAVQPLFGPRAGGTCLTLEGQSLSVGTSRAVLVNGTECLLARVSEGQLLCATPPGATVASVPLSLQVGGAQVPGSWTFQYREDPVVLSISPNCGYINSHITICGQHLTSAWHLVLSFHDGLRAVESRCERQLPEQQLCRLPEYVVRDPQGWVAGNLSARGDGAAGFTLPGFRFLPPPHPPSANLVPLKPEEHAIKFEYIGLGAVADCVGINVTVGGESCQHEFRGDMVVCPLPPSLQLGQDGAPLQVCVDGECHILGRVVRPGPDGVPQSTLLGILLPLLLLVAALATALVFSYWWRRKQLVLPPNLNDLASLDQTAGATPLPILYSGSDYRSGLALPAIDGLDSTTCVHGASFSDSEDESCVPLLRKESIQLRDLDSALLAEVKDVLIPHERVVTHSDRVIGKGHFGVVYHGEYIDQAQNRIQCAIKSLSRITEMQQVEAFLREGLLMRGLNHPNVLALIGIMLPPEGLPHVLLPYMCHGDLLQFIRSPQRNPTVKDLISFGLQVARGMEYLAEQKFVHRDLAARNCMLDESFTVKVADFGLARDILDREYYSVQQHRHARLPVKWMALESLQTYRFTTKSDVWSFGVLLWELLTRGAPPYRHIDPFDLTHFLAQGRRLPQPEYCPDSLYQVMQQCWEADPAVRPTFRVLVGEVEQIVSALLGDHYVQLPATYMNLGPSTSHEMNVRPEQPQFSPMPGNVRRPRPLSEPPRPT
readout_type: pIC50
Please report pIC50 as the negative decimal logarithm of the molar concentration, giving only the number.

// known answers, use as guide
Recorded pIC50 for `CC1=C(C#N)C(c2ccc3[nH]nc(OCCOC(C)C)c3c2)C(C#N)=C(C)N1` with RON (Homo sapiens, UniProt Q04912), please?
5.07

Any idea what pIC50 came out for CCN1CCN(CCCOc2cc3nccc(Oc4c(F)cc(NC(=O)NN5C(=O)CSC5c5c(F)cccc5F)cc4F)c3cc2OC)CC1 (stereo not drawn) on RON (Homo sapiens, UniProt Q04912)?
8.80

Next up:
Query for RON (Homo sapiens, UniProt Q04912): what pIC50 does the record show for `CCOc1ccn(-c2ccc(F)cc2)c(=O)c1C(=O)Nc1ccc(Oc2ccnc(N)c2Cl)c(F)c1` ?
8.07

###

Target: RON (Homo sapiens, UniProt Q04912)
Assay: RON dissociation constant (Kd)
Format: binding
readout_type: Kd (nM)
Answer format: numeric, nM implied, no suffix.

What measured Kd is associated with `Cn1cnc(-c2nc3nccc(Oc4ccc(NC(=O)c5cnn(-c6ccccc6)c5C(F)(F)F)cc4F)c3s2)c1` on RON (Homo sapiens, UniProt Q04912)?
43

###

System: MDA-MB-231 cells
Assay: MDA-MB-231 cell viability as a function of SU-6656 concentration, with or without Dasatinib co-treatment
Format: cell-based
Conditions: Homo sapiens, MDA-MB-231, MDA-MB-231; co-treated with 1 μM Dasatinib; read-out: concentration of SU-6656 at 50% viability
readout_type: pIC50
# reply with the number alone; pIC50 is -log10 of concentration in mol/L

Reported pIC50 for MDA-MB-231 cells, given `CN(C)S(=O)(=O)c1ccc2c(c1)/C(=C/c1cc3c([nH]1)CCCC3)C(=O)N2` ?
4.90

###

Target: cMet (Homo sapiens)
Sequence (P08581 25-1390): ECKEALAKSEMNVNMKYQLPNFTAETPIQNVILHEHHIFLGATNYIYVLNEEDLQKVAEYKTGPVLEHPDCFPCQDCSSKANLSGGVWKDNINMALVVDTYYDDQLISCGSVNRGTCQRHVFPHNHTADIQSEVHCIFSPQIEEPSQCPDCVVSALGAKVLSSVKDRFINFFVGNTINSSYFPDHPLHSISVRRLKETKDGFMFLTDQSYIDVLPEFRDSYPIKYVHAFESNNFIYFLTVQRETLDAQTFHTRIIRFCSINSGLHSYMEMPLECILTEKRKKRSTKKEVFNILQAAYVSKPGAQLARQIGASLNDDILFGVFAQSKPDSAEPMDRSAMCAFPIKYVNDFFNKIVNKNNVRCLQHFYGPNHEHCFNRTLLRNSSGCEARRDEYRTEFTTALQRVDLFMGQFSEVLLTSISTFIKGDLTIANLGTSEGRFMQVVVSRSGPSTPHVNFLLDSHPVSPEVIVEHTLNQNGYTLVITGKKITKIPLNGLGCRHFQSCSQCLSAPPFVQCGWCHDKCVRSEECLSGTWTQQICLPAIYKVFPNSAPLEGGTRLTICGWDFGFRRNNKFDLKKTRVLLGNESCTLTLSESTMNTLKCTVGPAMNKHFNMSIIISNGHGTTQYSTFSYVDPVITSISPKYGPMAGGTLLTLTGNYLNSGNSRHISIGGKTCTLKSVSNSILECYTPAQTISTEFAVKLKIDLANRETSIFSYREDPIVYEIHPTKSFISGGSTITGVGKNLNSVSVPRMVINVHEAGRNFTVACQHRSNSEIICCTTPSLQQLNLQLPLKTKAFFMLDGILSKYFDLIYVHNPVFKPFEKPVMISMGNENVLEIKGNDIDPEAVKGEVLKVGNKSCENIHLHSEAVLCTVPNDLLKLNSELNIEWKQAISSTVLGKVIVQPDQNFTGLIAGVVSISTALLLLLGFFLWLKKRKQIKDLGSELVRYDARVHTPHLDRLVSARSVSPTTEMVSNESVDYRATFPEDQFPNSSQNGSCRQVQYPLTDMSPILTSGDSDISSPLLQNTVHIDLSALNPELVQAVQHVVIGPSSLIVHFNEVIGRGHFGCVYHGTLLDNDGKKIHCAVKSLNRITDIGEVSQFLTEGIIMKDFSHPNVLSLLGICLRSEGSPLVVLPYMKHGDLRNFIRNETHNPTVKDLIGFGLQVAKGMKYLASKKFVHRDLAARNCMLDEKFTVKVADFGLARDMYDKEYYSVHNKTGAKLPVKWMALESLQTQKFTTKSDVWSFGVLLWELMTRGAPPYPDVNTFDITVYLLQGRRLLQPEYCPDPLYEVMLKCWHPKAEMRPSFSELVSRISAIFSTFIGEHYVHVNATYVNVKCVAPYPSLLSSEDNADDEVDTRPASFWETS
IC50 values for the compounds below.

Write down the reported IC50 of `Cn1cnc(-c2cc3nccc(Oc4ccc(NC(=O)c5cnn(-c6ccccc6)c5C(F)(F)F)cc4F)c3cn2)c1` , test system: cMet (Homo sapiens).
133 nM

Form field - read-out: IC50; system: cMet (Homo sapiens); submitted item: `CCOc1ccn(-c2ccc(F)cc2)c(=O)c1C(=O)Nc1ccc(Oc2ccnc(N)c2Cl)c(F)c1`
7.3 nM
